Experiment: qHTS of pediatric cancer cell lines to identify multiple opportunities for drug repurposing: Primary screen for NB-EBc1 cells (AID 1347095);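 further: plate controls were DMSO neutral control for no effect and bortezomib for full effect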
Conditions: NB-EBc1 neuroblastoma viability, CellTiter-Glo luminescence, 48 h; series mostly up to 46 µM
Procedure: Drug repurposing or repositioning has been offered as a strategy for drug development in oncology programs. This approach has special potential for childhood cancers and other rare or orphan diseases, where the expected return on new drug development has been a disincentive to pharmaceuticals. […] We employed a titration-based paradigm (quantitative high-throughput screening or qHTS), where all compounds were tested at multiple concentrations for their effect on cell viability. […]
Results filed as inconclusive are left out. Activity calls are given as the source filed them. The call rests on the fitted dose curve; in most records, active means well fitted cell-killing curve with a large enough effect; inconclusive means small, poorly fitted or top-dose-only effect; inactive means no such curve, though single readings can be large or run the other way.
PROPERTY_NAME: activity change, negative = cytotoxic

Known results for compounds:
- RECORD_SMILES: "CC1(C)Oc2ccc(C#N)cc2[C@@H](N2CCCC2=O)[C@@H]1O"
  activity change, negative = cytotoxic: "inactive"
- RECORD_SMILES: "C[C@@H](O)[C@H](N)C(=O)O"
  activity change, negative = cytotoxic: "inactive"
- RECORD_SMILES: "O=C1NS(=O)(=O)c2ccccc21"
  activity change, negative = cytotoxic: "inactive"
- RECORD_SMILES: "C=Cc1c(C)c2cc3[nH]c(cc4nc(cc5nc(cc1[nH]2)C(C)=C5CCC(=O)O)C(CCC(=O)O)=C4C)c(C)c3C=C"
  activity change, negative = cytotoxic: "inactive"
- RECORD_SMILES: "CCCCc1ncc(/C=C(\\Cc2cccs2)C(=O)O)n1Cc1ccc(C(=O)O)cc1"
  activity change, negative = cytotoxic: "inactive"

For the next question, use this compound.
Asked: Quote activity change, negative = cytotoxic reported for NC(N)=NCCC[C@H](N)C(=O)O please.
Given back: 12% [at 4.84 µM] (inactive)

====

System: P93_24
Assay: qHTS profiling for inhibitors of Plasmodium falciparum proliferation (AID 504749); further: nearly all actives have a fitted effect of over 60% in size
Conditions: P. falciparum in erythrocytes, SYBR Green DNA, 72 h; series mostly up to 28.7 µM
Results filed as inconclusive are left out. Calls of active or inactive are those of the source. The call rests on the fitted dose curve; in most records, active means well fitted inhibition curve with a large enough effect; inconclusive means small, poorly fitted or top-dose-only effect; inactive means flat fitted curve, though single readings scatter.
Bench note: report the call from active, inactive

Example entries and their recorded answers appear below.
- RECORD_SMILES: "Cc1ccc2nc(N)[nH]c(=O)c2c1Sc1ccncc1"
  QUALITATIVE_LABEL: "active"
- RECORD_SMILES: "CC1=C(/C=C/C(C)=C/C=C/C(C)=C/C(=O)O)C(C)(C)CCC1"
  QUALITATIVE_LABEL: "inactive"
- RECORD_SMILES: "CCCCCCCCCCCCOS(=O)(=O)O"
  QUALITATIVE_LABEL: "inactive"

Asked: Each compound tested received a call. Report the one for Cc1c(O)cccc1C(=O)N[C@@H](CSc1ccccc1)[C@H](O)CN1C[C@H]2CCCC[C@H]2C[C@H]1C(=O)NC(C)(C)C .
Given back: active

Asked: Each compound tested received a call. Report the one for CC(C)(C)C(=O)NCCCC(=O)O .
Given back: inactive

Asked: Each compound tested received a call. Report the one for COc1cc(C)c(Cc2cnc(N)nc2N)cc1OC .
Given back: inactive

====

Experiment: qHTS assay for small molecule activators of the nuclear factor-kappa B (NF-kB) signaling pathway (AID 651749); further: % of control where 0% means no effect
Conditions: NF-kB-bla ME-180 cells, beta-lactamase FRET ratio, 16 h; hits give high values
Records with an inconclusive call do not appear.
PROPERTY_NAME: activation (%)
Answers are plain numbers, in %.

- MOLECULE: "Oc1cccc(O)c1"
  activation, %: -1.45

For each of the items listed, what is its activation?
1. O=S(=O)(O)NC1CCCCC1
2. CCCCC(CC)COC(=O)c1ccccc1O (stereo unspecified)
3. COc1ccc(Cl)cc1C(=O)NCCc1ccc(S(=O)(=O)NC(=O)NC2CCCCC2)cc1
4. Cc1cccc(Nc2cc(Cl)nc(SCC(=O)O)n2)c1C
5. CC(O)COc1ccccc1 (stereo unspecified)

Given back:
[-0.941, -1.39, -2.47, 3.82, -2.71]

====

Target: D(1A) dopamine receptor (Homo sapiens)
Experiment: HTS Assay for Allosteric Agonists of the Human D1 Dopamine Receptor: Primary Screen for Antagonists (AID 488983);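 further: calcium flux response to an EC80 dopamine challenge measured with no-wash dye; nearly all actives have a fitted effect of over 65% in size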
Settings: D1 receptor cell assay, antagonist mode, qHTS titration; series mostly up to 41.8 µM
Inconclusive results are not listed. The source made the active and inactive calls. The call rests on the fitted dose curve; in most records, active means well fitted inhibition curve with a large enough effect; inconclusive means small, poorly fitted or top-dose-only effect, or effect the other way; inactive means flat fitted curve, though single readings scatter.
Bench note: report the call from 1 for active, -1 for inactive

- COMPOUND: "OCCN1CCN(CCCN2c3ccccc3Sc3ccc(Cl)cc32)CC1"
  QUALITATIVE_LABEL: 1

Asked: Each compound tested received a call. Report the one for CN1CCN(C2Cc3ccccc3Sc3ccc(Cl)cc32)CC1 (centres undefined) .
Given back: 1

Asked: Each compound tested received a call. Report the one for CC(C)NC[C@H](O)c1ccc(O)c(O)c1 .
Given back: -1

Asked: Each compound tested received a call. Report the one for C#CCN(C)Cc1ccccc1 .
Given back: -1

Asked: Each compound tested received a call. Report the one for N=c1c[n+](N2CCOCC2)[n-]o1 .
Given back: -1

Asked: Each compound tested received a call. Report the one for O=C1N=C(O)CN1/N=C/c1ccc(-c2ccc([N+](=O)[O-])cc2)o1 .
Given back: -1

Asked: Each compound tested received a call. Report the one for CC(=O)OCC(=O)[C@@]1(O)CC[C@H]2[C@@H]3CCC4=CC(=O)CC[C@]4(C)[C@H]3C(=O)C[C@@]21C .
Given back: -1

====

Test: Cell Viability - LYMP1-003 - Assay at 40 hr (AID 964); further: on the % scale 0 is the no-effect control and ±100 the full control effect; nearly all actives have a fitted effect of over 60% in size
Conditions: LYMP1-003 lymphoblastoid viability; series mostly up to 92.2 µM
Inconclusive results are not listed. Calls of active or inactive are those of the source. Calls follow the shape of the dose curve; as a rule, active = well fitted cell-killing curve with a large enough effect; inconclusive = small, poorly fitted or top-dose-only effect; inactive = flat fitted curve, though single readings scatter.
PROPERTY_NAME: outcome

Known results for compounds:
- RECORD_SMILES: "NCCNCCNCCN"
  outcome: "inactive"
- RECORD_SMILES: "CCCCCCCCCCCCOS(=O)(=O)O"
  outcome: "inactive"
- RECORD_SMILES: "[Cl][In]([Cl])[Cl]"
  outcome: "inactive"
- RECORD_SMILES: "Nc1ccc(S(=O)(=O)Nc2nccs2)cc1"
  outcome: "inactive"
- RECORD_SMILES: "Cc1cc2nc3c(=O)[nH]c(=O)nc-3n(C[C@H](O)[C@H](O)[C@H](O)CO)c2cc1C"
  outcome: "inactive"
- RECORD_SMILES: "Cc1cc(CC(=O)O)n(C)c1C(=O)c1ccc(Cl)cc1"
  outcome: "inactive"

For the next question, use this compound.
Asked: Quote outcome reported for CC12CCC(CC1)C(C)(C)O2 please.
Given back: inactive

====

Experiment: Primary qHTS for inhibitors of nuclear receptor binding SET domain protein 2 (NSD2) in an RCH-ACV wild type WT cells (2C) (AID 1645877); further: nearly all actives have a fitted effect of over 70% in size
Conditions: RCH-ACV (leukaemia line) NSD2 WT (2C) viability, CellTiter-Glo, 72 h; series mostly up to 44.9 µM
Inconclusive results are not listed. Active and inactive are the calls of the source. Calls come from the whole dose curve; as a rule, active = well fitted inhibition curve with a large enough effect; inconclusive = small, poorly fitted or top-dose-only effect; inactive = no such curve, though single readings can be large or run the other way.
Bench note: report the call from yes (1) = active, no (0) = inactive

- MOLECULE: "CC1CC(OC(=O)C(O)c2ccccc2)CC(C)(C)N1C (stereo unspecified)"
  QUALITATIVE_LABEL: "no (0)"

Asked: Each molecule tested received a call. Report the one for Cn1cc[nH]c1=S .
Given back: no (0)

Asked: Each molecule tested received a call. Report the one for CCC(=O)Nc1ccc(O)cc1 .
Given back: no (0)

====

Test system: PC15
Assay: qHTS profiling for inhibitors of Plasmodium falciparum proliferation (AID 504749); further: nearly all actives have a fitted effect of over 60% in size
Settings: P. falciparum in erythrocytes, SYBR Green DNA, 72 h; series mostly up to 28.7 µM
Results filed as inconclusive are left out. The source made the active and inactive calls. Calls come from the whole dose curve; as a rule, active = well fitted inhibition curve with a large enough effect; inconclusive = small, poorly fitted or top-dose-only effect; inactive = flat fitted curve, though single readings scatter.
Bench note: report the call from active, inactive

- MOLECULE: "CCCCN1CCCC[C@H]1C(=O)Nc1c(C)cccc1C"
  QUALITATIVE_LABEL: "inactive"

Asked: Each molecule tested received a call. Report the one for CC(O)COc1ccccc1 (stereo not drawn) .
Given back: inactive

Asked: Each molecule tested received a call. Report the one for COc1ccccc1O .
Given back: inactive

Asked: Each molecule tested received a call. Report the one for O=C(O)CN1C(=O)c2cccc3cccc(c23)C1=O .
Given back: inactive

Asked: Each molecule tested received a call. Report the one for O=C(Oc1ccccc1C(=O)O)c1ccccc1O .
Given back: inactive

Asked: Each molecule tested received a call. Report the one for Oc1cccc(O)c1 .
Given back: inactive

====

Assay: Drug repurposing screens with cells derived from glioblastoma tumor samples (AID 1345199); further: potency means the concentration at half of the fitted maximal effect; nearly all actives have a fitted effect of over 40% in size
Conditions: GBM patient neurospheres viability, ATP luminescence, 48 h; tumour line B
Records with an inconclusive call do not appear. Calls of active or inactive are those of the source. Calls come from the whole dose curve; as a rule, active = well fitted inhibition curve with a large enough effect; inconclusive = small, poorly fitted or top-dose-only effect; inactive = flat fitted curve, though single readings scatter.
PROPERTY_NAME: Potency

Known results for compounds:
- COMPOUND: "CN(C)CCCN1c2ccccc2Sc2ccc(Cl)cc21"
  PROPERTY_NAME: "Potency"
  OBSERVED_RESULT: "15.8 µM (active)"
- COMPOUND: "CC(CN1c2ccccc2Sc2ccccc21)N(C)C (stereo not given)"
  PROPERTY_NAME: "Potency"
  OBSERVED_RESULT: "20 µM (active)"
- COMPOUND: "CNCCC(Oc1ccc(C(F)(F)F)cc1)c1ccccc1 (stereo not given)"
  PROPERTY_NAME: "Potency"
  OBSERVED_RESULT: "20 µM (active)"
- COMPOUND: "OCCN1CCN(CCCN2c3ccccc3Sc3ccc(Cl)cc32)CC1"
  PROPERTY_NAME: "Potency"
  OBSERVED_RESULT: "8.91 µM (active)"

For the next question, use this compound.
Asked: Quote Potency reported for OCc1cc(C(O)CNCCCCCCOCCCCc2ccccc2)ccc1O (stereo not given) please.
Given back: 20 µM (active)
